- system_tested: T1, human TNFR2 on the cell membrane (human, UniProt P20333 23-461)
- T1 construct: whole, on cells; One molecule for all cell formats; also called TNFR2-CHO cells; CHO-TNFR2
- T1 sequence (looked up): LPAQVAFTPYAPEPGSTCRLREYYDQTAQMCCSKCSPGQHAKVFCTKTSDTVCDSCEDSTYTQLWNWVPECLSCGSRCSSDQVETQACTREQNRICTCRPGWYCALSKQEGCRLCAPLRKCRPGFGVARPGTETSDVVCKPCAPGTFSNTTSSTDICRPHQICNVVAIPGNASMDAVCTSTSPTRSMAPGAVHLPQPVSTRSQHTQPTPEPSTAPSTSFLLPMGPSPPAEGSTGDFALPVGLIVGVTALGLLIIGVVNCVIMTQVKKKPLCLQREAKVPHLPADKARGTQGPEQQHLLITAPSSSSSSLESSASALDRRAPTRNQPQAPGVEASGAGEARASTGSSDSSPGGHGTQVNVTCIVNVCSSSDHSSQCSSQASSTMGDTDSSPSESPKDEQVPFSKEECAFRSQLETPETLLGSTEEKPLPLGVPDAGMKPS
- test_description: flow cytometry on ConA-stimulated spleen cells of hTNFR2-KI mice, mCD3+ T cells
Examples of binders with documented percent of cells in the upper right quadrant (Q2-UR, mCD3+ and anti-hIgG+) follow.
Return type: number; implicit unit %.

# binder, value_unit, measurement
measured = [
    ("human-mouse chimeric TNFR2 monoclonal antibody 33C12-hFc (antibody, V domains shown, Mouse V regions of clone 33C12 with human constant regions; also called human-mouse chimeric 33C12 antibody) VH: DVKLVESGGGLVKPGGSLKLSCAASGFTFSDYTMSWVRQTPEKRLEWVATISTGGSYTYYPDSVKGRFTISRDNAKNTLYLQMSSLKSEDTAMYYCTRDGGYDGDYFDYWGQGTTLTVSS VL: ENVLTQSPAIMSASPGEKVTMTCRASSSVSSSYLHWYQQKSGASPKLWIYRTSNLASGVPARFSGSGSGTSYSLTISSVEAEDAATYYCQQYSGYPLTFGAGTRLELK", "%", 43.6),
    ("human-mouse chimeric TNFR2 monoclonal antibody 7F2-hFc (antibody, V domains shown, Mouse V regions of clone 7F2 with human constant regions) VH: QVTLKESGPGILQPSQTLSLTCSFSGFSLNTFGLGVGWIRQPSGKGLEWLTHIWWNDDKYYNPALKSRLTISRDTSENLVFLKIANVDTADTATYYCARIEGLRRFDYWGQGTTLTVSS VL: DIQMTQSPSSLSASLGGKVTITCKTSQDINKFIAWYQHKPGKGPRLLIHYTSTLQPGIPSRFSGSGSGRDYSFSISDLEPEDIATYYCLQYANLWAFGGGTKLEIK", "%", 45),
    ("human-mouse chimeric TNFR2 monoclonal antibody 27F6-hFc (antibody, V domains shown, Mouse V regions of clone 27F6 with human constant regions) VH: EVQLQQSGTVLARPGASVKMSCKTSGYTFTSYWMHWVKQRPGQGLEWIGTIYPGNSDTSYNQKFKGKAKLTAVTSASTAYMELNSLTNEDSAVFYCTRENLLLRSYFFDYWGQGTTLTVSS VL: DIVMTQSPASLAVSLGQRATISCKASQSVDYDGDSYLNWYQQKPGQPPKLLIYAASNLPSGIPARFSGSGSGTDFTLNIHPVEEEDAATYYCQQSNEDPRTFGGGTKLEIK", "%", 36),
]

Item human-mouse chimeric TNFR2 monoclonal antibody 12E12-hFc (antibody, V domains shown, Mouse V regions of clone 12E12 with human constant regions; also called human-mouse chimeric 12E12 antibody) VH: EVQLQQSGAELVKPGASVKLSCTVSGFNIKDFYIHWVKQRPEQGLEWIGRVDPEDGNTEYAPNFQDRATMTTDTSSNTAYLQLSSLTSVDTAVYYCSTWDGFSYFDYWGLGTTLTVSS VL: QAVVTQESALTTSPGETVTLTCRSSTGPVTTNNYANWVQEKPDHLFTGLIGGTNDRAPGVPARFSGSLIGDKTALTITGTQTEDEAVYFCALWYRNHWVFGGGTKLTVL has what recorded percent of cells in the upper right quadrant (Q2-UR, mCD3+ and anti-hIgG+)? 46.2
